# Test system: KRAS PDC multicell spheroid viability;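 also: spheroids exposed to compounds for 7 days; 100% = DMSO vehicle control viability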
# measurement protocol: Anticancer human tumor 825966-067-R-J1-PDC patient-derived colon carcinoma cell line growth inhibition [KRAS2]
# condition label: second compound 0.1 µM; first compound 0.0316 µM; active compounds read low
measurement kind: viability, T/C

Lookup result for COc1cc(Nc2ncc3c(n2)-c2ccc(Cl)cc2C(c2c(F)cccc2OC)=NC3)ccc1C(=O)O + CNCc1ccccc1-c1csc(C(C)Nc2nc(C)nc3cc(OC)c(OC)cc23)c1 ; measured viability, T/C: 95.3%

Lookup result for CCNC(=O)CC1N=C(c2ccc(Cl)cc2)c2cc(OC)ccc2-n2c(C)nnc21 (stereo not drawn) + CC1OCC2(CCN(c3cnc(Sc4ccnc(N)c4Cl)c(N)n3)CC2)C1N ; measured viability, T/C: 104%

Lookup result for CN(C)C/C=C/C(=O)Nc1cc2c(Nc3ccc(F)c(Cl)c3)ncnc2cc1O[C@H]1CCOC1 + COc1cc2nc(C)nc(NC(C)c3cc(N)cc(C(F)(F)F)c3)c2cc1OC1CCOC1 ; measured viability, T/C: 96.1%

Every entry's value here was drawn from PubChem BioAssay AID1963865.
